Consider the following compounds and their measured activity at 25 µM readings.
# study.target: APE1 (Homo sapiens)
# Construct: purchased New England Biolabs (NEB) M0282S
# test.details: APE1 fluorescent oligonucleotide activity assay (abasic site substrate)
# Format: biochemical
# test.conditions: inhibitors at 25 μM; relative to 0 μM inhibitor control; mean ± s.d., 3 independent experiments; read-out: APE1 activity (%)

Some solved entries appear below for comparison.
{"columns": ["mol.smiles", "study.target", "data.value"],
 "data": [
  ["COc1ccc2c(c1)C(=O)N(CCc1ccc(S(=O)(=O)NC(=O)NC3CCCCC3)cc1)C(=O)C2(C)C", "APE1 (Homo sapiens)", "109%"],
  ["COc1ccc([N+](=O)[O-])cc1NC(=O)c1ccc2c(c1)N(Cc1cc(C)ccc1C)C(=O)c1ccccc1S2(=O)=O", "APE1 (Homo sapiens)", "114%"],
  ["Cc1cc(O[C@H](C)C(=O)NC[C@H]2CC[C@H](C(=O)O)CC2)c2c3c(c(=O)oc2c1)CCC3", "APE1 (Homo sapiens)", "116%"],
  ["Nn1cnn2c(SCC(=O)Cc3ccc(-c4nc5cc(NC(=O)CSc6nnc7n(N)cnn67)ccc5o4)cc3)nnc12", "APE1 (Homo sapiens)", "95.5%"],
  ["O=C(Nc1ccc(S(=O)(=O)NCc2ccco2)cc1)c1cc(NS(=O)(=O)c2cccs2)cc(NS(=O)(=O)c2cccs2)c1", "APE1 (Homo sapiens)", "103%"]
]}

Q: Fill blank: measured activity at 25 µM of the compound `C[C@H]1C[C@H](C)CN(CCCNc2ccc(C(=O)Nc3ccc(C(F)(F)F)cc3)cc2[N+](=O)[O-])C1` is ____.
Result: 116%

Q: Follow-up item: `Cc1ccc(NC(=O)CSc2nc(-c3ccccc3F)nc3c2Cc2c(CO)cnc(C)c2O3)cc1`
Result: 118%
